# key: entry, value: growth
System: RXF 393 renal
Test: NCI-60 one-dose screen, 48 h (100 = growth as untreated, 0 = no growth, -100 = all killed)
Settings: 10 µM unless noted
The panel holds about 83,000 compounds, 20% with a hit somewhere; the sample as a whole holds those more often.
Give your result in % as a bare value.

Previously resolved entries follow.
| smi | unitOfMeasure | growth |
| --- | --- | --- |
| Cc1ccc(N=CNN=C(N)N)cc1 | % | 110 |
| Cc1cc(N=Nc2ccc(-c3ccc(N=Nc4ccc(O)c(C(=O)O)c4)cc3)cc2)c(N)c(N=Nc2ccc(C(=O)O)cc2)c1N | % | 94.7 |
| CCN(CC)Cc1cc(Nc2ccnc3cc(Cl)ccc23)cc(-c2ccc(Cl)cc2)c1O | % | 46.4 |

Known value: RXF 393 renal growth of the compound CCCCCCCCCCCCCC(=S)NCCCC[C@H](NC(=O)OCc1ccccc1)C(=O)Nc1ccccc1 equals 69.1

Assay RXF 393 renal, sample Cc1ccc(CSCc2ccc(C(=O)NC3CC3)o2)cc1 , growth read: 92.7

---

Test system: M14 melanoma
Experiment: NCI-60 one-dose screen, 48 h
Settings: 10 µM unless noted
This is part of a sample that, as a whole, favours compounds with a hit. Of some 83,000 tested, about 20% had one in any assay. Activity calls are given as the source filed them. The calls were made as follows: active = growth percent below 10; inactive = the rest.
Answer with one of the outcomes given here: y (active), n (inactive)

Record excerpt, results attached:
| molecule | class |
| --- | --- |
| NCCCOc1cc2ccccc2cc1C(=O)NCCCOc1cc2ccccc2cc1C(=O)Nc1ccc(Cl)cc1O | y |
| Cc1cc(C)cc(NC(=O)Cn2nncc2CN2C(=O)CSC2=O)c1 | n |
| COc1ccc2[nH]c(C(=O)OCc3ccc4c(Br)cc(Br)c(O)c4n3)cc2c1 | y |
| COc1ccc2cc(-c3nc(C)c(C(C)=O)c(-c4ccc(C)cc4)n3)ccc2c1 | n |

--- query ---
Input line: Field: outcome | Entry: COc1ccc(C(=O)C(C#N)c2cc(OC)c(OC)c(OC)c2)cc1 (stereo not given)
Output line: n

---

Test system: HT29 colon
Test: NCI-60 one-dose screen, 48 h
Details: 10 µM unless noted
This is part of a sample that, as a whole, favours compounds with a hit. Of some 83,000 tested, about 20% had one in any assay. The source made the active and inactive calls. How the source made its calls: active means growth percent below 10; inactive means the rest.
Choose one outcome from this list and give only that: active, inactive

| compound | class |
| --- | --- |
| O=C(O)Cn1ccc2ccccc21 | inactive |
| COc1ccc(/C=c2\c(=O)n(-c3ccccc3)c3nn4c(=O)c(=O)[nH]nc4n23)cc1 | inactive |
| CNC(=O)c1cc(Oc2ccc(NC(=O)c3nc(S(C)(=O)=O)sc3-c3ccc(F)cc3)cc2)ccn1 | active |
| Nc1cccc(S(=O)(=O)c2cccc(N)c2)c1 | inactive |
| Cc1ccc(NC(=O)c2[nH]c(SCCN(C)C)nc2-c2ccc(F)cc2)cc1Nc1ccc2ncn(C)c(=O)c2c1 | inactive |
| CCSc1ccc([C@@H]2[C@@H](O)C(=O)N2c2cc(OC)c(OC)c(OC)c2)cc1 | active |

Input line: Outcome logged for O=C(CCCCCCc1nc2ccc(Br)cc2[nH]1)NO in this assay:
Output line: active

Input line: Kindly provide the recorded test outcome for the following compound: COc1ccc(/C(=C\c2ccc3c(c2)OCO3)C(=O)Nc2nc3ccc(F)cc3s2)cc1OC
Output line: inactive

Input line: Test call, this compound: OC(c1cc(-c2ccc(C(F)(F)F)cc2)nc(-c2ccc(C(F)(F)F)cc2)c1)C1CCCCN1 (stereo not given)
Output line: active

Input line: I'd appreciate the recorded outcome for N#Cc1ccc(NC(=O)Nc2nc3ccc(OC(F)(F)F)cc3s2)cc1 from this test.
Output line: active
